- System: Pseudomonas aeruginosa
- procedure.summary: Antibacterial activity against Pseudomonas aeruginosa ATCC 27853 assessed as growth inhibition at 32 ug/ml after 18 hrs by monochromator plate assay relative to control
- Type: functional
parameter: inhibition at 32 µg/mL (%)
Respond with the bare value in %.

>  <smiles.text>
CCOC(=O)c1cc(-c2sc(-c3ccc(-c4ccccc4)cc3)nc2C)[nH]n1

>  <value>
1.5

$$$$
>  <smiles.text>
Cc1nc(-c2ccc(-c3ccccc3)cc2)sc1-c1cc(C(=O)NC2CCCCC2)n[nH]1

>  <value>
6.6

$$$$
>  <smiles.text>
Cc1nc(-c2ccc(-c3ccccc3)cc2)sc1-c1cc(C(=O)Nc2ccc(F)cc2)n[nH]1

>  <value>
5.1

$$$$
>  <smiles.text>
Cc1nc(-c2ccc(-c3ccccc3)cc2)sc1-c1cc(C(=O)Nc2cccc3ccccc23)n[nH]1

>  <value>
8.2

$$$$
>  <smiles.text>
Cc1nc(-c2ccc(-c3ccccc3)cc2)sc1-c1cc(C(=O)Nc2ccccc2)n[nH]1

>  <value>
16.6

$$$$
>  <smiles.text>
Cc1cccc(-c2ccc(-c3nc(C)c(-c4cc(C(=O)NC5CCCCC5)n[nH]4)s3)cc2)c1C

>  <value>
7.1

$$$$
>  <smiles.text>
CCOC(=O)c1cc(-c2sc(-c3ccc(I)cc3)nc2C)[nH]n1

>  <value>
16.6

$$$$
>  <smiles.text>
Cc1nc(-c2ccc(I)cc2)sc1-c1cc(C(=O)Nc2ccccc2)n[nH]1

>  <value>
11.1

$$$$
>  <smiles.text>
COC(=O)c1cc(-c2sc(-c3ccc(I)cc3)nc2C)[nH]n1

>  <value>
6.6

$$$$
>  <smiles.text>
Cc1nc(-c2ccc(-c3ccccc3)cc2)sc1-c1cc(C(=O)Nc2ccc3c(c2)OCO3)n[nH]1

>  <value>
1.3

$$$$

Query: Please look up its inhibition at 32 µg/mL: `Cc1nc(-c2ccc(-c3cccc4c3OCO4)cc2)sc1-c1cc(C(=O)NC2CCCCC2)n[nH]1`
Reply: 6.2

---

- Test system: Escherichia coli
- procedure.summary: Antibacterial activity against Escherichia coli ATCC 25922 assessed as growth inhibition after 18 hrs by monochromator plate assay
- Format: functional
Calls of active or inactive are those of the source. The calls are words filed in the database; no cut-off is given here.
parameter: MIC

Study these solved cases before continuing.
>  <smiles.text>
Cc1nc(-c2ccc(-c3cccc4c3OCO4)cc2)sc1-c1cc(C(=O)NC2CCCCC2)n[nH]1

>  <study.target>
Escherichia coli

>  <value>
inactive

$$$$
>  <smiles.text>
COC(=O)c1cc(-c2sc(-c3ccc(I)cc3)nc2C)[nH]n1

>  <study.target>
Escherichia coli

>  <value>
inactive

$$$$
>  <smiles.text>
Cc1nc(-c2ccc(-c3ccccc3)cc2)sc1-c1cc(C(=O)NC2CCCCC2)n[nH]1

>  <study.target>
Escherichia coli

>  <value>
inactive

$$$$
>  <smiles.text>
Cc1nc(-c2ccc(-c3ccccc3)cc2)sc1-c1cc(C(=O)Nc2ccc(F)cc2)n[nH]1

>  <study.target>
Escherichia coli

>  <value>
inactive

$$$$

Shifting focus to the molecule that follows.
Query: Which MIC reading was recorded for the molecule `Cc1nc(-c2ccc(I)cc2)sc1-c1cc(C(=O)O)n[nH]1` ?
Reply: > 32 µg/mL

---

- procedure.summary: Cytotoxicity against HEK293 cells assessed as cell viability after 20 hrs by fluorescence assay
- Assay type: cell-based
- run.parameters: human
parameter: CC50 at 20 h

Query: So what does the record say about CC50 at 20 h for `Cc1nc(-c2ccc(-c3ccccc3)cc2)sc1-c1cc(C(=O)Nc2ccccc2)n[nH]1` ?
Reply: > 32 µg/mL

Origin of values: ChEMBL document CHEMBL4732221
